- target system: GPR158 (Homo sapiens)
- protocol text: Membrane radioligand saturation binding (Scatchard)
- Set-up: expressed in transfected cells; host or cells: HEK293FT
- measurement context: Scatchard plot, HEK293 membranes expressing GPR158, n=4
- Sequence (Q5T848 24-1215): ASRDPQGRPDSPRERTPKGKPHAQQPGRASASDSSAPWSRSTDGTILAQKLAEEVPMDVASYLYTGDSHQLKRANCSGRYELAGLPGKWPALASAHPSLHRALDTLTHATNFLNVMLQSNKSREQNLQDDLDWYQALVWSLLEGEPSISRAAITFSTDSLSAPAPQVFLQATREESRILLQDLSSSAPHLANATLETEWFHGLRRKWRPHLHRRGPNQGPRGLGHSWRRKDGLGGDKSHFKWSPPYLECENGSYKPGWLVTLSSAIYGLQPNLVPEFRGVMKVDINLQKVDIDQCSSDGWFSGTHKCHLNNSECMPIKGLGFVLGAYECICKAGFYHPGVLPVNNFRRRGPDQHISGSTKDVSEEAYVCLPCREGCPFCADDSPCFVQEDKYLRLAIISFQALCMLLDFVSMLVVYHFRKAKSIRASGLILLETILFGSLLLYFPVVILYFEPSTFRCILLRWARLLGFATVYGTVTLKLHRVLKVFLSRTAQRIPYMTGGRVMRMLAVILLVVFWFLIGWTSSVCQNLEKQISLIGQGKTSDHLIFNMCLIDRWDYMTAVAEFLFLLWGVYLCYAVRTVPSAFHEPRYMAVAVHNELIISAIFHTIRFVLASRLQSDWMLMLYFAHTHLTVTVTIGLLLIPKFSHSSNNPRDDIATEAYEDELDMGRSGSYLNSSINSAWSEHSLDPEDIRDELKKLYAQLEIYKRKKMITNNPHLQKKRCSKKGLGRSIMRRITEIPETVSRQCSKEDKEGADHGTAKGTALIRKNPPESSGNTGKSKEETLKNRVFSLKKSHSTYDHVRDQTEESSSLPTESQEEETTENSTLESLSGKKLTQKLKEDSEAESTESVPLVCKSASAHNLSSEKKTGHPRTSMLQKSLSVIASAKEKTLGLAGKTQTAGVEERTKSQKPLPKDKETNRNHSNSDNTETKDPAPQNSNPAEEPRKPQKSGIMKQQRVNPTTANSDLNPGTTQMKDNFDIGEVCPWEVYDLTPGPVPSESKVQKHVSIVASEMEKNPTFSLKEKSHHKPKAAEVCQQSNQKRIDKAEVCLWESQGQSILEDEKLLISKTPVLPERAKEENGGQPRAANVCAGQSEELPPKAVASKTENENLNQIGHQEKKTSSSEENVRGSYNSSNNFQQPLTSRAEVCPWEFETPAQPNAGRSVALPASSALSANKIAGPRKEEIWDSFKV
measure name: pKd
Lab note — pKd values are minus log10 of concentrations in M.

[ask] Output measured pKd for this item: NCC(=O)O [^3H-glycine, [^3H]-glycine]
[reply] 5.58

###

- target system: GPR158 (Homo sapiens)
- Construct: GPR158 AC2 (1-775) was expressed and purified; Flag; made in house; host or cells: HEK293 GnTI- (BacMam virus)
- protocol text: Isothermal Titration calorimetry (ITC) with purified GPR158
- Assay type: binding
- measurement context: purified GPR158-AC2, 23 °C, mean of 4 experimental runs, independent binding model; read-out: KD (ITC, mean)
- Protocol: FIGS. 9A-9H. Direct interaction of glycine with GPR158 A) Schematics of assay design for detecting glycine binding to GPR158 by flow cytometry. Cells transfected with GPR158 are incubated with FITC-glycine and fluorescence labeling of cells is detected by flow cytometry. […] C) Quantification of FITC-glycine binding detected in flow cytometry binding experiments. The median of fluorescence (MFI) is quantified and plotted. […] E) Quantification of ^3H-glycine binding to membrane expressing GPR158. […]
- Sequence (Q5T848 24-775): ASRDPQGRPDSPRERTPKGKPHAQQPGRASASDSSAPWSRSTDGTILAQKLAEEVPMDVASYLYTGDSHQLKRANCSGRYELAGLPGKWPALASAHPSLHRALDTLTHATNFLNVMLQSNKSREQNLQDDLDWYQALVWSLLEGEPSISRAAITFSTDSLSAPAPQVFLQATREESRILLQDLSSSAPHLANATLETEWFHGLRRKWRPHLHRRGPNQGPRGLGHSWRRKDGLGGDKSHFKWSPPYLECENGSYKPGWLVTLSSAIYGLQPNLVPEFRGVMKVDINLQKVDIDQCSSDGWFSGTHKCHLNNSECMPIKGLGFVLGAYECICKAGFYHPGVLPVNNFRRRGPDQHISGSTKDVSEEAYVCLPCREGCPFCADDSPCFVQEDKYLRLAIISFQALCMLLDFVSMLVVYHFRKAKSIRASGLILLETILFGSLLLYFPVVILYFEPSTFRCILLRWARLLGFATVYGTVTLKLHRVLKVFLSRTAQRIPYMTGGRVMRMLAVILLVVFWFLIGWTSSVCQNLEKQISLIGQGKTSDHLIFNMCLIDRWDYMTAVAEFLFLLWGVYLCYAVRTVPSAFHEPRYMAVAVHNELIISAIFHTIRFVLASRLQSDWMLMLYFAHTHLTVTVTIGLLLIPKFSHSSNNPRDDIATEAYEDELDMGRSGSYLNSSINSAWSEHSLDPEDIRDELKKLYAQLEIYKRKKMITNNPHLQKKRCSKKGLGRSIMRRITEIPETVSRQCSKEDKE
measure name: Kd (µM)
Number only, in µM; omit the unit.

[ask] Output measured Kd for this item: `NCC(=O)O`
[reply] 7.76
